Test system: RAW264.7
Test: Inhibition of LPS induced NF-kappa-B transcriptional activity in mouse RAW264.7 cells at 30 uM after 20 hrs by SEAP reporter assay
Assay type: cell-based
Please assign a class to every record based on measured inhibition, with ranges A: < 30%; B: ≥ 30% and < 60%; C: ≥ 60%

Sort Clc1cccc(Cc2nc3ccccc3[nH]2)c1 into one of the categories. C

Tag the class for COc1cc(Cc2nc3ccccc3[nH]2)cc(OC)c1OC B

Which inhibition category applies to c1ccc(Cc2nc3ccccc3o2)cc1 here? B

Just checking, what class would you give CS(=O)(=O)c1ccc(Cc2nc3ccccc3[nH]2)cc1 here? B

Class label required: COc1ccc(-c2nc3ccccc3[nH]2)cc1 A

Hey, which category is Clc1ccc2[nH]c(Cc3ccccc3)nc2c1 in, do you know? B

Class label required: COc1ccc2[nH]c(Cc3ccccc3)nc2c1 B

Using the reported inhibition, which band applies to c1ccc(Cc2nc3ccccc3[nH]2)cc1 [BENDAZOL] ? B

Input c1ccc(-c2nc3ccccc3[nH]2)cc1 ; output its category A

Input FC(F)(F)c1ccc(Cc2nc3ccccc3[nH]2)cc1 ; output its category B

Bin this entry: Clc1ccc(Cc2nc3cc(Cl)ccc3[nH]2)cc1 C
